System: B. fragilis ATCC 25285
Test: MIC against B. fragilis ATCC 25285
Assay type: cell-based
Conditions: Bacteroides fragilis, ATCC25285
quantity kind: MIC

# get_value(readout='MIC', item= CSC1O[C@H]([C@H](NC(=O)[C@H]2NC[C@@H]3C=C(c4ccc(F)cc4)CCO[C@@H]23)[C@H](C)Cl)C(O)[C@@H](O)[C@H]1O (stereo partly drawn) ) > 32 µg/mL

# get_value(readout='MIC', item= Cc1ccc(S(=O)(=O)OCC2O[C@H]([C@H](NC(=O)[C@H]3NC[C@@H]4CC=CCO[C@H]43)[C@@H](C)O)C(O)[C@@H](O)[C@H]2O)cc1 (stereo partly drawn) ) > 64 µg/mL

# get_value(readout='MIC', item= CSC1O[C@H]([C@H](NC(=O)[C@H]2NC[C@@H]3CC=CCO[C@H]32)[C@H](C)Sc2ccc(-c3cncnc3)cc2)C(O)[C@@H](O)[C@H]1O (stereo partly drawn) ) > 64 µg/mL

# get_value(readout='MIC', item= C[C@@H](O)[C@@H](NC(=O)[C@H]1NC[C@@H]2CC=CCO[C@H]21)[C@H]1OC(CN=[N+]=[N-])[C@H](O)[C@H](O)C1O (stereo partly drawn) ) > 64 µg/mL

# get_value(readout='MIC', item= CSC1O[C@H]([C@H](NC(=O)[C@H]2NC[C@@H]3C=C(c4ccccc4)CCO[C@@H]23)[C@H](C)Cl)C(O)[C@@H](O)[C@H]1O (stereo partly drawn) ) > 32 µg/mL

# get_value(readout='MIC', item= CSC1O[C@H]([C@H](NC(=O)[C@H]2NC[C@@H]3CC(c4ccccc4)=CCO[C@H]32)[C@H](C)Cl)C(O)[C@@H](O)[C@H]1O (stereo partly drawn) ) > 32 µg/mL
